biological target: KSBcl-2 (Human herpesvirus 8 type P, UniProt F5HGJ3); test: biochemical; format: binding, Kaposi's sarcoma-associated herpesvirus (KSHV)
Sequence (F5HGJ3 whole entry): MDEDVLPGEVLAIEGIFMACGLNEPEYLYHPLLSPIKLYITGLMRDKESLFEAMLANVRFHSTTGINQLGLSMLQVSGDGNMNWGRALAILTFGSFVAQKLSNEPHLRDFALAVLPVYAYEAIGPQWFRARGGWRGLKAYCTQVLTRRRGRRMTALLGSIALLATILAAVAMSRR
No end group written: not given here.
PROPERTY_MEASURED: pKd
Please keep in mind that pKd is minus log10 of the molar concentration; only the number is needed.

Use these answered entries as a reference point.
SUBSTANCE: RPIIWIGQEISRVGDRENAYKAR-NH2 [BL6-22_Y4eK]
pKd: 6.12

SUBSTANCE: RPQIWIHQGLQRLGDGLNAYKAR-NH2 [KL6-7_Y4eK]
pKd: 8.54

SUBSTANCE: RPNIWLTQRLQRTGDGLNAYYAR-NH2 [KScomp]
pKd: 7.89

Query substance follows.
Entry RPQIWIHQGLQRLGAGLNAYYAR-NH2 [KL6-7_D3fA] : reported pKd = ?
6.74

* * *

biological target: Mcl-1 (Homo sapiens); test: Direct fluorescence anisotropy binding to Mcl-1
Sequence (Q07820 whole entry): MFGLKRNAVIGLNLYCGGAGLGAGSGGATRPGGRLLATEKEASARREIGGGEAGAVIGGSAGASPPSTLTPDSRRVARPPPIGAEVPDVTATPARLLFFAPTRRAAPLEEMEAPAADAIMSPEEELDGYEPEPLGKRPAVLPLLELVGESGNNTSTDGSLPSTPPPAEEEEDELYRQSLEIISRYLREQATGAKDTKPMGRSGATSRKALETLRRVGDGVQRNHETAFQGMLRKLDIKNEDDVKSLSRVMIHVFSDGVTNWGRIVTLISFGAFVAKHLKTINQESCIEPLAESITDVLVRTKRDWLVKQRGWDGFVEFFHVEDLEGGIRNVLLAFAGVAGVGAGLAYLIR
No end group written: not given here.
Parameter Kd: see the listing below.

# count of solved cases: 3
SUBSTANCE: RPIIWIGQEISRVGDRENAYKAR-NH2 [BL6-22_Y4eK]
RESULT: ~2200 nM
--
SUBSTANCE: RPQIWIHQGLQRLGDGLNAYKAR-NH2 [KL6-7_Y4eK]
RESULT: ~7800 nM
--
SUBSTANCE: RPQIWIHQGLQRLGAGLNAYYAR-NH2 [KL6-7_D3fA]
RESULT: > 5000 nM

API: the following record is the query input.
Would you kindly share the measured Kd for RPNIWLTQRLQRTGDGLNAYYAR-NH2 [KScomp] ?
510 nM

Source: paper PMC4520770
